experiment: Lethal dose in dog was determined; assay type: toxicity, organism-based, Canis lupus familiaris; details: in vivo
attribute.measured: LD50 (mg/kg)
Numbers only, in mg/kg.

Challenge: Assign LD50 to the following record: CN1C(=O)[C@]23C[C@@H]4C(C)(C)[C@@]5(C[C@@]41CN2CC[C@@]3(C)O)C(=O)Nc1c5ccc2c1OC=CC(C)(C)O2 [Paraherquamide A]
Response given: 0.5

* * *

assay: Lethal dose in mice was determined; format: toxicity, organism-based; details: mouse, in vivo
attribute.measured: LD50

Challenge: Assign LD50 to the following record: CN1C(=O)[C@]23C[C@@H]4C(C)(C)[C@@]5(C[C@@]41CN2CC[C@@]3(C)O)C(=O)Nc1c5ccc2c1OC=CC(C)(C)O2 [Paraherquamide A]
Response given: < 15 mg/kg
